reported property: melting point

Some solved cases for reference:
molecule	result
C=CCCCCN1C(=O)c2ccccc2C1=O	17 to 20 °C
COc1ccccc1CNc1ccc2c(CNC(=O)c3ccc(F)cc3)cccc2n1	162 °C
CC(C)C(S)C(=O)NCC(=O)O (stereo not given)	118 to 119 °C
CCOCC1Cc2cc(S(=O)(=O)N(C)C)c(Cl)c(Cl)c2O1 (stereo not given)	91 to 92 °C

Now take the following molecule into account.
O=C(O)CCC(=O)N1CCN2C(=O)OC(c3ccccc3)(c3ccccc3)C2C1 (stereo not given) has a reported melting point of 158 to 164 °C

----------
reported property: melting point

Example results:
compound	melting point
CC1(C)N[C@H](Cc2ccc(Br)cc2)[C@@H]2C(=O)N(Cc3ccccc3)C(=O)[C@@H]21 (racemic)	142 to 143 °C
CC1=NN(CCN2CCOCC2)S(=O)(=O)c2sc(S(N)(=O)=O)cc21	160 to 162 °C
COC(=O)C(Cl)C(C)=NNS(=O)(=O)c1ccc(C)cc1 (configuration not stated)	97 to 101 °C
Cn1nnnc1SCCCC(=O)c1ccccn1	73 to 75 °C
Cc1cc2c(Cl)c(C#N)cnc2s1	101 to 102 °C
FS(F)(F)(F)(F)c1cc(Br)cc(S(F)(F)(F)(F)F)c1	65.9 to 66.4 °C

The recorded melting point for entry O=C(NCCCn1ccnc1)Nc1cccc(C(F)(F)F)c1 equals 105 to 108 °C
